Catalogue of pIC50 readings, one per entry.
Molecular target: Peroxisome proliferator-activated receptor alpha (Homo sapiens, UniProt Q07869)
Sequence (Q07869 whole entry): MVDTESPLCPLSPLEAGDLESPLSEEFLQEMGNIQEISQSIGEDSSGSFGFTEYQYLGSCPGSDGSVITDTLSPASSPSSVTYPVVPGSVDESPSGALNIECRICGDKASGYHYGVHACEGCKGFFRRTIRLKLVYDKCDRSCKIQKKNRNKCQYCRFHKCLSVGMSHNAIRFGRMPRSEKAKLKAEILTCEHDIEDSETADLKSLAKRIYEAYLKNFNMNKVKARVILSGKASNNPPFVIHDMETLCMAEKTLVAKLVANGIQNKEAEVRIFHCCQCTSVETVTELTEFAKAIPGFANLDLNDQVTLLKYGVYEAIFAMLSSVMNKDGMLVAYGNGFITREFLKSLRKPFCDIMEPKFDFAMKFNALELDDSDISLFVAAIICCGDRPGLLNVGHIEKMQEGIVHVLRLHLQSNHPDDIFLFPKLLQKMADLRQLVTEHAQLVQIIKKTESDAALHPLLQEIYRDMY
Test: Antagonist activity at PPARalpha (unknown origin) expressed in HEK293A cells assessed as inhibition of GW7647-induced transactivation after 16 to 18 hrs by luciferase reporter assay
pIC50: −log10 of the molar value.
measured_parameter: pIC50

compound	assay_system	experimental_result
CC(C)(Oc1ccc(Cl)cc1)C(=O)NS(=O)(=O)c1ccccc1	Peroxisome proliferator-activated receptor alpha (Homo sapiens, UniProt Q07869)	6.19
CC(C)(Oc1ccc(CCNC(=O)c2ccc(Cl)cc2)cc1)C(=O)NS(=O)(=O)c1ccccc1	Peroxisome proliferator-activated receptor alpha (Homo sapiens, UniProt Q07869)	6.10
CCCC(Sc1nc2cc(Cl)ccc2s1)C(=O)NS(=O)(=O)c1ccc(NC(C)=O)cc1 (stereo unspecified)	Peroxisome proliferator-activated receptor alpha (Homo sapiens, UniProt Q07869)	3.97
CCCC(Sc1nc2cc(Cl)ccc2s1)C(=O)NS(=O)(=O)c1ccc(NC(=O)c2ccccc2)cc1 (stereo unspecified)	Peroxisome proliferator-activated receptor alpha (Homo sapiens, UniProt Q07869)	5.35
O=C(NS(=O)(=O)c1ccc([N+](=O)[O-])cc1)C(Sc1nc2cc(Cl)ccc2s1)c1ccccc1 (stereo unspecified)	Peroxisome proliferator-activated receptor alpha (Homo sapiens, UniProt Q07869)	6.09
CC(C)(Oc1ccc(C(=O)c2ccc(Cl)cc2)cc1)C(=O)NS(=O)(=O)c1ccccc1	Peroxisome proliferator-activated receptor alpha (Homo sapiens, UniProt Q07869)	5.12
CCCC(Sc1nc2cc(Cl)ccc2s1)C(=O)NS(=O)(=O)c1ccc(OC)cc1 (stereo unspecified)	Peroxisome proliferator-activated receptor alpha (Homo sapiens, UniProt Q07869)	6.17
Cc1ccc(C)c(OCCCC(C)(C)C(=O)NS(=O)(=O)c2ccccc2)c1	Peroxisome proliferator-activated receptor alpha (Homo sapiens, UniProt Q07869)	5.06
CCCC(Sc1nc2cc(Cl)ccc2s1)C(=O)NS(=O)(=O)c1ccc(C)cc1 (stereo unspecified)	Peroxisome proliferator-activated receptor alpha (Homo sapiens, UniProt Q07869)	5.34
CCCC(Sc1nc2cc(Cl)ccc2s1)C(=O)NS(=O)(=O)c1ccc(Cl)cc1 (stereo unspecified)	Peroxisome proliferator-activated receptor alpha (Homo sapiens, UniProt Q07869)	5.16
CCCC(Sc1nc2cc(Cl)ccc2s1)C(=O)NS(=O)(=O)c1ccc([N+](=O)[O-])cc1 (stereo unspecified)	Peroxisome proliferator-activated receptor alpha (Homo sapiens, UniProt Q07869)	6.07
